- assay-info: stability test in liver microsomes (rat)
- Type: in vitro ADME
- stated-conditions: Rat liver microsomes, 60 min
metric: % remaining (60 min) (%)
Expressed in %, but write only the number.

Reported % remaining (60 min) of [2H]C([2H])([2H])N1CCC(N2CCN(C(=O)[C@@H](Cc3cc(C)c4[nH]ncc4c3)NC(=O)N3CCC(c4cc5c([nH]c4=O)SCC5)CC3)CC2)CC1 : 105

For Cc1cc(C[C@@H](NC(=O)N2CCC(c3cc4c([nH]c3=O)SCCC4)CC2)C(=O)N2CCN(C3CCN(C)CC3)CC2)cc2cn[nH]c12 the compound record lists % remaining (60 min) as 91.5

Short answer for Cc1cc(C[C@@H](NC(=O)N2CCC(c3cc4ccccc4[nH]c3=O)CC2)C(=O)N2CCN(C3CCN(C)CC3)CC2)cc2cn[nH]c12 [Zavegepant, zavegepant, reference compound] : % remaining (60 min) was 95.5

The compound listed as Cc1cc(C[C@@H](NC(=O)N2CCC(c3cc4c([nH]c3=O)SCC4)CC2)C(=O)N2CCN(C3CCN(C)CC3)CC2)cc2cn[nH]c12 shows % remaining (60 min) equal to 90.7

###

- assay-info: PK properties in monkeys with or without alkyl glycoside, intravenous route and nasal spray
- Format: in vivo, cynomolgus monkey
- stated-conditions: male, cynomolgus monkey, plasma; cynomolgus monkeys, IV@0.5 mg/kg; read-out: Concentration to peak Cmax
metric: Cmax (ng/mL)
Report the value in ng/mL with no unit label.

Value of Cmax reported for the molecule Cc1cc(C[C@@H](NC(=O)N2CCC(c3cc4c([nH]c3=O)SCC4)CC2)C(=O)N2CCN(C3CCN(C)CC3)CC2)cc2cn[nH]c12 is 2280

###

- assay-info: stability test in liver microsomes (rat)
- Type: in vitro ADME
- stated-conditions: Rat liver microsomes 0.5 mg/mL, 1.0 µM
metric: half-life at 1 µM

The measured half-life at 1 µM associated with [2H]C([2H])([2H])N1CCC(N2CCN(C(=O)[C@@H](Cc3cc(C)c4[nH]ncc4c3)NC(=O)N3CCC(c4cc5c([nH]c4=O)SCC5)CC3)CC2)CC1 [Example 29] reads > 2 h

###

- tested-target: CGRP receptor complex (Homo sapiens, UniProt O60894+Q16602)
- Construct: SK-N-MC (neuroepithelioma cells) from National Science and Technology Infrastructure
- Sequence (Q16602 23-461): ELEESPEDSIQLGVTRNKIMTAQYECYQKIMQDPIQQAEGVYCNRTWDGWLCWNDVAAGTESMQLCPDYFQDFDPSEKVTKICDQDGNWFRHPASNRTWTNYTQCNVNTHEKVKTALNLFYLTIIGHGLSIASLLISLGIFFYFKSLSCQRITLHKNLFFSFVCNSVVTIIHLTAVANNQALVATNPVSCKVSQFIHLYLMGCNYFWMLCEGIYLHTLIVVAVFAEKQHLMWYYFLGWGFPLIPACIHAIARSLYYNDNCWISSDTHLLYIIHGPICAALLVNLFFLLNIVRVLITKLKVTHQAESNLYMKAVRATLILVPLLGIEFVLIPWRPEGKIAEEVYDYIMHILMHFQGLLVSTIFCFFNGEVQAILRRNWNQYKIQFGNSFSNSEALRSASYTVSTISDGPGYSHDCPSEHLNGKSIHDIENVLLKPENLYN
- Sequence (O60894 27-148): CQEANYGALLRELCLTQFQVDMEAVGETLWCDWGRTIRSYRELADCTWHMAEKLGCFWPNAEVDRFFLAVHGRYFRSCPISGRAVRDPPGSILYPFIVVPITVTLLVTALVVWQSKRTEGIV
- assay-info: determination of cell functional antagonism - cAMP determination
- stated-conditions: inhibition of CGRP-stimulated cAMP formation in SK-N-MC cells
metric: pIC50
Keep in mind that pIC50 stands for -log10 of concentration in molar terms.

According to the records, this compound Cc1cc(C[C@@H](NC(=O)N2CCC(c3cc4c([nH]c3=O)SCCC4)CC2)C(=O)N2CCC(N3CCN(C)CC3)CC2)cc2cn[nH]c12 displays pIC50 of 9.10

What the record says about Cc1cc(C[C@@H](NC(=O)N2CCC(c3cc4c([nH]c3=O)CCCS4)CC2)C(=O)N2CCN(C3CCN(C)CC3)CC2)cc2cn[nH]c12 : pIC50 is 7.77

Summary for this compound, Cc1cc(C[C@@H](NC(=O)N2CCC(c3cc4c([nH]c3=O)SCC4)CC2)C(=O)N2C3CCC2CC(N2CCCCC2)C3)cc2cn[nH]c12 (stereo partly drawn) : pIC50 is 9.70

###

- tested-target: CGRP receptor complex (Homo sapiens, UniProt O60894+Q16602)
- Construct: SK-N-MC (neuroepithelioma cells) from National Science and Technology Infrastructure; host or cells: SK-N-MC
- assay-info: determination of cell functional antagonism - cAMP determination
- Format: cell-based
- stated-conditions: inhibition of CGRP-stimulated cAMP formation in SK-N-MC cells
pIC50: −log10 of the molar value.
We use 8 as the dividing line for pIC50: on or above the line is YES, below is NO.

Data request: API: above_or_equal(metric=pIC50, cutoff=8) for item Cc1cc(C[C@@H](NC(=O)N2CCC(c3cc4c([nH]c3=O)C3CCC4C3)CC2)C(=O)N2CCN(C3CCN(C)CC3)CC2)cc2cn[nH]c12 (some centres unmarked)
Data returned: NO

Data request: Entry Cc1cc(C[C@@H](NC(=O)C2CCN(c3cc4c([nH]c3=O)SCCC4)CC2)C(=O)N2CCN(C3CCN(C)CC3)CC2)cc2cn[nH]c12 : is its pIC50 no less than 8?
Data returned: NO

Data request: Check the entry Cc1cc(C[C@@H](NC(=O)N2CCC(c3cc4c([nH]c3=O)SCC=C4)CC2)C(=O)N2CCN(C3CCN(C)CC3)CC2)cc2cn[nH]c12 : does pIC50 equal or exceed 8?
Data returned: YES

###

- assay-info: PK properties in monkeys with or without alkyl glycoside, intravenous route and nasal spray
- Format: in vivo, cynomolgus monkey
- stated-conditions: male, cynomolgus monkey, plasma, other: nasal spray (intranasal); cynomolgus monkeys, IN@1 mg/kg (Solvent 1, no DDM); read-out: Area under curve AUC
metric: AUC (ng·h/mL)
# output: bare number, implied unit ng·h/mL

Please fill in: AUC reported for Cc1cc(C[C@@H](NC(=O)N2CCC(c3cc4c([nH]c3=O)SCC4)CC2)C(=O)N2CCN(C3CCN(C)CC3)CC2)cc2cn[nH]c12 = 46.1

###

- assay-info: PK properties in monkeys with or without alkyl glycoside, intravenous route and nasal spray
- Format: in vivo, cynomolgus monkey
- stated-conditions: male, cynomolgus monkey, plasma, other: intranasal (nasal spray); cynomolgus monkeys, IN@1 mg/kg (Solvent 2, 0.2% dodecyl-β-D-maltoside); read-out: Half-life period t1/2 (converted)
- Procedure: Species: cynomolgus monkey, male, 2-5 kg. Source: Ankai Yibo (Zhanjiang) Biotechnology Co., Ltd., Laboratory Animal Production License No.: SCXK (Yue) 2019-0046. Quantity: 3 cynomolgus monkeys were intravenously administered and 3 cynomolgus monkeys were administered by a nasal spray. […] A concentration of a specified compound in plasma was determined by LC-MS/MS, and main pharmacokinetic parameters were calculated by a Winnolin 8.3 non-compartmental model. […]
metric: half-life
In your response, put the unit directly after the numeric value.

Value of measured half-life for the entry Cc1cc(C[C@@H](NC(=O)N2CCC(c3cc4c([nH]c3=O)SCC4)CC2)C(=O)N2CCN(C3CCN(C)CC3)CC2)cc2cn[nH]c12 [Example 8] : 4.92 h

###

- assay-info: PK properties in SD rats with different concentrations of alkyl glycoside (0.05% and 5% DDM)
- Format: in vivo
- stated-conditions: Sprague-Dawley, rat, in vivo, inhaled or intranasal, without alkyl glycoside
metric: Tmax (min)
Answer format: numeric, min implied, no suffix.

What the record says about Cc1cc(C[C@@H](NC(=O)N2CCC(c3cc4c([nH]c3=O)SCC4)CC2)C(=O)N2CCN(C3CCN(C)CC3)CC2)cc2cn[nH]c12 [Example 8] : Tmax is 12

###

- assay-info: PK properties in SD rats with different concentrations of alkyl glycoside (0.05% and 5% DDM)
- Assay type: in vivo
- stated-conditions: Sprague-Dawley, rat, in vivo, inhaled or intranasal, 5% alkyl glycoside
metric: Tmax (min)
Form entry: value (min) — number only.

Looking up Cc1cc(C[C@@H](NC(=O)N2CCC(c3cc4c([nH]c3=O)SCC4)CC2)C(=O)N2CCN(C3CCN(C)CC3)CC2)cc2cn[nH]c12 , I found its Tmax recorded as 4.98

###

- assay-info: PK properties in monkeys with or without alkyl glycoside, intravenous route and nasal spray
- Assay type: in vivo, cynomolgus monkey
- stated-conditions: cynomolgus monkey, plasma, 1 mg/kg, cynomolgus monkeys, IN@1 mg/kg (Solvent 1, no DDM); read-out: Time to peak Tmax
- Description: Species: cynomolgus monkey, male, 2-5 kg. Source: Ankai Yibo (Zhanjiang) Biotechnology Co., Ltd., Laboratory Animal Production License No.: SCXK (Yue) 2019-0046. Quantity: 3 cynomolgus monkeys were intravenously administered and 3 cynomolgus monkeys were administered by a nasal spray. […] A concentration of a specified compound in plasma was determined by LC-MS/MS, and main pharmacokinetic parameters were calculated by a Winnolin 8.3 non-compartmental model. […]
metric: Tmax (h)
Give your result in h as a bare value.

Lab book: Tmax of Cc1cc(C[C@@H](NC(=O)N2CCC(c3cc4c([nH]c3=O)SCCC4)CC2)C(=O)N2CCN(C3CCN(C)CC3)CC2)cc2cn[nH]c12 noted as 1

###

- assay-info: stability test in liver microsomes (human)
- Assay type: in vitro ADME
- stated-conditions: Human liver microsomes 0.5 mg/mL, 1.0 µM
metric: half-life at 1 µM

The recorded half-life at 1 µM for [2H]C([2H])([2H])N1CCC(N2CCN(C(=O)[C@@H](Cc3cc(C)c4[nH]ncc4c3)NC(=O)N3CCC(c4cc5c([nH]c4=O)SCC5)CC3)CC2)CC1 [Example 29] is > 2 h

###

- assay-info: PK properties in monkeys with or without alkyl glycoside, intravenous route and nasal spray
- Type: in vivo, cynomolgus monkey
- stated-conditions: cynomolgus monkey, plasma; cynomolgus monkeys, IV@0.5 mg/kg; read-out: Volume of distribution steady-state Vss
metric: Vd
Could you kindly put the unit after your number?

Looking up Cc1cc(C[C@@H](NC(=O)N2CCC(c3cc4c([nH]c3=O)SCCC4)CC2)C(=O)N2CCN(C3CCN(C)CC3)CC2)cc2cn[nH]c12 [Example 6] , I see its Vd listed as 0.652 L/kg

Provenance of the data: patent EP4781986A1
